B1: CDC25A (parent)
chain: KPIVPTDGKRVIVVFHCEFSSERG

- Variants of: B1
- test.summary: protein stability index of a GFP-peptide fusion (GPS, HEK-293T) (PSI 1-6); higher = more stable;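 note: lentivirally expressed fusions sorted by FACS into six bins by GFP to DsRed ratio, PSI derived from sequencing read proportions per bin multiplied by bin number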
- experimental.parameters: c terminus: a fixed tail appended

[
  {
    "sequence.code": "KPIVPTDMKRVIVVFHCEFSSERG [G8M]",
    "protein stability index": 3.53
  },
  {
    "sequence.code": "KPIVPTDGKRVIVVFHCEGSSERG [F19G]",
    "protein stability index": 2.15
  },
  {
    "sequence.code": "KPIVPTDGKRVIVVFHCENSSERG [F19N]",
    "protein stability index": 2
  },
  {
    "sequence.code": "KPIVPTDGKRVIVVFHCERSSERG [F19R]",
    "protein stability index": 2.22
  },
  {
    "sequence.code": "KPIVPTDGKRVIVDFHCEFSSERG [V14D]",
    "protein stability index": 3.36
  },
  {
    "sequence.code": "KPIVPTDGKRVIWVFHCEFSSERG [V13W]",
    "protein stability index": 1.79
  },
  {
    "sequence.code": "KPIVPTDGKRVIVVMHCEFSSERG [F15M]",
    "protein stability index": 1.61
  },
  {
    "sequence.code": "KPIVPTDGKRVIVVFHCEFSSEMG [R23M]",
    "protein stability index": 2.92
  },
  {
    "sequence.code": "KPIVPTDRKRVIVVFHCEFSSERG [G8R]",
    "protein stability index": 2.3
  },
  {
    "sequence.code": "KPIDPTDGKRVIVVFHCEFSSERG [V4D]",
    "protein stability index": 2.51
  },
  {
    "sequence.code": "KPIVPTDGKRVIVVFHCCFSSERG [E18C]",
    "protein stability index": 2.17
  },
  {
    "sequence.code": "KPIVYTDGKRVIVVFHCEFSSERG [P5Y]",
    "protein stability index": 2.66
  },
  {
    "sequence.code": "KPIVPTDGKRDIVVFHCEFSSERG [V11D]",
    "protein stability index": 2.65
  },
  {
    "sequence.code": "KPDVPTDGKRVIVVFHCEFSSERG [I3D]",
    "protein stability index": 1.76
  },
  {
    "sequence.code": "KPPVPTDGKRVIVVFHCEFSSERG [I3P]",
    "protein stability index": 2.27
  },
  {
    "sequence.code": "KPIVPTKGKRVIVVFHCEFSSERG [D7K]",
    "protein stability index": 1.8
  },
  {
    "sequence.code": "KPIVPTDGKAVIVVFHCEFSSERG [R10A]",
    "protein stability index": 1.93
  },
  {
    "sequence.code": "KPIVPTDGHRVIVVFHCEFSSERG [K9H]",
    "protein stability index": 2.19
  },
  {
    "sequence.code": "KPIAPTDGKRVIVVFHCEFSSERG [V4A]",
    "protein stability index": 2.12
  },
  {
    "sequence.code": "KPTVPTDGKRVIVVFHCEFSSERG [I3T]",
    "protein stability index": 2.19
  },
  {
    "sequence.code": "KPIVPTDGKRVIVVFHCEFSSCRG [E22C]",
    "protein stability index": 2.52
  },
  {
    "sequence.code": "KPIVPTDGKRVIVVFHCMFSSERG [E18M]",
    "protein stability index": 2.38
  }
]

Origin of measurements: the supplement of paper PMC10567573
